Source: patent US20180051082A1

target: T1, monomeric soluble human PD1-Avi-His (human, UniProt Q15116 25-170); test: SPR (BIACORE T200), antibody captured on anti-human IgG, monomeric PD1-Avi-His flowed, 1:1 fit
T1 construct: extracellular domain; not shown: Avi tag and His tag at the C-terminus
T1 sequence (Q15116 25-170): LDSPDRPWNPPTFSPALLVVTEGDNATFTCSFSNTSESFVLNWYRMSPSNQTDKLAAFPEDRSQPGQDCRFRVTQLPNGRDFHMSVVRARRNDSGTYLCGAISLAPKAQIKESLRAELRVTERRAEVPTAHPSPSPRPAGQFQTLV
Below is a list of entries, each paired with its recorded kon value.
State the value with its unit after it.

Please review the following examples before continuing.
BINDER: APE1923 (antibody, human IgG1, V domains shown, expressed from HEK 293 cells as human IgG1) VH: EVQLLESGGGLVQPGGSLRLSCAASGFTFSSYTMSWVRQAPGKGLEWVSVISSGGNSAYYPDSVQGRFTISRDNSKNTLYLQMNSLRAEDTAVYYCAKEHYGTSHFAYWGQGTLVTVSS VL: EIVLTQSPATLSLSPGERATLSCRASESVDNFGISFMSWYQQKPGQAPRLLIYAASNPGSGIPARFSGSGSGTDFTLTISSLEPEDFAVYYCQQSKEVPYTFGQGTKLEIK
kon: 190000 M⁻¹ s⁻¹
//
BINDER: APE2058 (antibody, human IgG1, V domains shown, expressed from HEK 293 cells as human IgG1; also called anti-PD-1) VH: EVQLLESGGGLVQPGGSLRLSCAASGFTFSSYDMSWVRQAPGKGLEWVSTISGGGSYTYYQDSVKGRFTISRDNSKNTLYLQMNSLRAEDTAVYYCASPYYAMDYWGQGTTVTVSS VL: DIQLTQSPSFLSAYVGDRVTITCKASQDVGTAVAWYQQKPGKAPKLLIYWASTLHTGVPSRFSGSGSGTEFTLTISSLQPEDFATYYCQHYSSYPWTFGQGTKLEIK
kon: 300000 M⁻¹ s⁻¹

# evaluate next
Query block: Please supply the value of reported kon for the item APE1950 (antibody, human IgG1, V domains shown, expressed from HEK 293 cells as human IgG1) VH: EVQLLESGGGLVQPGGSLRLSCAASGFTFSSYTMSWVRQAPGKGLEWVSVISSGGDSTYYPDSVQGRFTISRDNSKNTLYLQMNSLRAEDTAVYYCAKEHYGTSHFAYWGQGTLVTVSS VL: EIVLTQSPATLSLSPGERATLSCRASESVDNFGISFMSWYQQKPGQAPRLLIYAASNPGSGIPARFSGSGSGTDFTLTISSLEPEDFAVYYCQQSKEVPYTFGQGTKLEIK
Result block: 150000 M⁻¹ s⁻¹
